Target Of Assay: PKK in kaolin activated human platelet poor plasma (Homo sapiens)
Construct: Platelet poor plasma (PPP) obtained from human wholeblood
Sequence (P03952 391-638 limits assumed): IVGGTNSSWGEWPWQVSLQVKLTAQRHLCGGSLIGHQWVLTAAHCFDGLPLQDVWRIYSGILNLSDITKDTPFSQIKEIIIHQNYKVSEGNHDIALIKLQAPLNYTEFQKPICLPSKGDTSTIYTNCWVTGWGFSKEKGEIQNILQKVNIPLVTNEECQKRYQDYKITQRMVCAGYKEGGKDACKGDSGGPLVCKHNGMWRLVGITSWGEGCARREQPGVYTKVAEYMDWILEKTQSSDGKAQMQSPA
Sequence (P03952 20-390 limits assumed): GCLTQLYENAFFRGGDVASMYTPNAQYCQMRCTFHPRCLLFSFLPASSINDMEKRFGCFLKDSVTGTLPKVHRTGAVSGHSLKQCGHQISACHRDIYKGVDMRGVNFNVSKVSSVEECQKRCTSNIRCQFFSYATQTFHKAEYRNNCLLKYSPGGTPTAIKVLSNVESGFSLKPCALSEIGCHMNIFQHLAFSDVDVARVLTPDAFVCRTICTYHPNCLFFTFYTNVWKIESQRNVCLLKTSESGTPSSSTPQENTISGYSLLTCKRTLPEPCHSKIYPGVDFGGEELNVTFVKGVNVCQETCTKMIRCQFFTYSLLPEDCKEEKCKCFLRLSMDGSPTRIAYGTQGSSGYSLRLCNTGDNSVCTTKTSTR
Procedure Details: Inhibition of PKK in kaolin activated human PPP;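 note: readout is the rate of fluorogenic substrate cleavage in rfu per min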
Assay Setup: 25-750 μg/mL kaolin, global fit, text b200 calls the values IC90
Kindly state log10 of IC50 for each of the entries shown.
Quick note: numbers are log10 of IC50, with nM as the unit.

Solved entries (count: 2):
- Molecule: "CCCc1nc(N2CC3CC3C2)ccc1Cn1cnc(C(=O)N[C@@H]2CCc3c2ncn3C)c1 (stereo partly shown) [Example 31]"
  Val: 2.99
- Molecule: "Cn1cnc2c1CC[C@H]2NC(=O)c1cnn(Cc2ccc(N3CC4CC4C3)nc2CCCO)c1 (stereo partly shown)"
  Val: 2.04

Quick request: log10 of IC50 for each listed item, please.
1. Cn1cnc2c1CC[C@H]2NC(=O)c1cn(Cc2ccc(N3CC4CC4C3)cn2)nn1 (stereo partly shown)
2. Cn1cnc2c1CC[C@H]2NC(=O)c1cnn(Cc2ccc(N3CC4CC4C3)cn2)c1 (stereo partly shown)
3. Cc1nc(N2CC3CC3C2)ccc1Cc1ccc(C(=O)N[C@@H]2CCc3c2ncn3C)o1 (stereo partly shown)

A.
1. 2.55
2. 2.78
3. 4.35

Reference source for all entries: patent US12479827B2
